// log10 of IC50 collected for UniProt:P03951
Sequence (P03951 388-625): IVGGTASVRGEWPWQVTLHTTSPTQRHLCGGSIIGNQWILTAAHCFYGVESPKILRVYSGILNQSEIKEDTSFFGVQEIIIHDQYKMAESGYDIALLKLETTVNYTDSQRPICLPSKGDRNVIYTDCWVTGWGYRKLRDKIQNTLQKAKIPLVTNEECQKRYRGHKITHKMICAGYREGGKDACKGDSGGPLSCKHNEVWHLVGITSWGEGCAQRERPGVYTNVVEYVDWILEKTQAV
Sequence (P03951 19-387 partner): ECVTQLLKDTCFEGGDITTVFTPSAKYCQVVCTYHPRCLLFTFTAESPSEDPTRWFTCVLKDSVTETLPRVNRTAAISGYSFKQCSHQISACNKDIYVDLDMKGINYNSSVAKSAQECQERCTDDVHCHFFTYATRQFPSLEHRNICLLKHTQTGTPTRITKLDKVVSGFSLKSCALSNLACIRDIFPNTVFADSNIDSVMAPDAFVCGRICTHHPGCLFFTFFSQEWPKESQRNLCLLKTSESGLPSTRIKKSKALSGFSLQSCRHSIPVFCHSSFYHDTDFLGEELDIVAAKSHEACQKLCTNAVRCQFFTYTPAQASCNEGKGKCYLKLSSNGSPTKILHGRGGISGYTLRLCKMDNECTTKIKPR
Quantity: log10 of IC50 (log10 of the value in nM)

compound="COCCC(C(=O)Nc1cc(C(=O)O)cs1)n1cc2c(cc1=O)-c1cc(Cl)ccc1CC1(CC1)NC2=O (stereo not shown)" measured=2.00
compound="O=C1NC2(CC2)Cc2ccc(Cl)cc2-c2cc(=O)n(C(Cc3ccccc3)C(=O)Nc3ccc4[nH]c(=O)[nH]c4c3)cc21 (stereo not shown)" measured=0.65
compound="COCCC(C(=O)Nc1ccc(C(=O)O)cc1)n1cc2c(cc1=O)-c1cc(Cl)ccc1CC(CF)NC2=O (stereo not shown)" measured=0.08
compound="O=C(O)c1ccc(NC(=O)C(Cc2ccccc2)n2cc3c(cc2=O)-c2cc(Cl)ccc2CC2(CC2)NC3=O)cc1 (stereo not shown)" measured=0.26
compound="COCCC(C(=O)Nc1ccc(C(=O)O)nc1)n1cc2c(cc1=O)-c1cc(Cl)ccc1CC1(CC1)NC2=O (stereo not shown)" measured=1.67
compound="COCCC(C(=O)Nc1ccc2nn(C)cc2c1)n1cc2c(cc1=O)-c1cc(Cl)ccc1CC1(CC1)NC2=O (stereo not shown)" measured=0.91
compound="COCCC(C(=O)Nc1ccc2nn(C)cc2c1)n1cc2c(cc1=O)-c1cc(Cl)ccc1CC(CF)NC2=O (stereo not shown)" measured=0.45
